# System: H4
# assay_name: Luminescence Cell-Based Dose Response HTS to Identify Activators of 5'UTR Stem-Loop Driven Prion Protein mRNA Translation in H4 Neuroglioblastoma Cells. [Related pubchem assays: 1829 (Project Summary), 1814 (Primary HTS)]
# Assay type: functional
# measurement_setup: Homo sapiens
The source made the active and inactive calls. No stated cut-off is given here; in the data, actives have a measured EC50 and inactives only a lower limit.
Parameter EC50: see the listing below.
readout: EC50

{"columns": ["record_smiles", "endpoint_value"],
 "data": [
  ["Nc1ccccc1C(=O)NNC1=C(C(=O)C(F)(F)F)CCC1", "21.7 µM (active)"],
  ["Cn1c(-c2ccc(-c3ccccc3)cc2)cnc1S", "15.6 µM (active)"],
  ["Cc1cccc(OC(=O)c2sc3ncn(C)c(=O)c3c2C)c1", "19.8 µM (active)"],
  ["COc1nn(-c2ccccc2)c(=O)c(Cl)c1Cl", "> 120 µM (not active)"]
]}
